# Measured target: UniProt:P28335
# Sequence (P28335 33-458): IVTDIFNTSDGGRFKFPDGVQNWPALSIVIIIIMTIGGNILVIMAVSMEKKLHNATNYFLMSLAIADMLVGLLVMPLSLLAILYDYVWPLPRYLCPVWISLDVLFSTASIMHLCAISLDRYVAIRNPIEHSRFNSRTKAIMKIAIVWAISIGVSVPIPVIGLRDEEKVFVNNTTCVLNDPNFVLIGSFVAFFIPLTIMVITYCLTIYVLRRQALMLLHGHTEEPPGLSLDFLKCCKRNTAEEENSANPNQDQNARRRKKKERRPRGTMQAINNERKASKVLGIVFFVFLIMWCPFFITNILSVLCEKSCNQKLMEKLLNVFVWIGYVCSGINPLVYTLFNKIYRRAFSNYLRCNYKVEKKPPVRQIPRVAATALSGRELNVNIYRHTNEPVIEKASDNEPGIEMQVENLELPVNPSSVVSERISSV
Measured quantity: Kd
# output: number + unit

Incoming: Specify measured Kd for COc1cc(CC(C)N)c(OC)cc1I (stereo not shown) [[^125I] DOI, reference compound] .
Outgoing: 0.4 nM
